- experiment.description: NCI Yeast Anticancer Drug Screen. Data for the mec2-1 strain (AID 157)
- condition: S. cerevisiae mec2-1 strain, at 50.0 µM, hits give high values
About 79,000 compounds went through this panel and 15% of them were active in at least one assay; those are over-represented in the sample as a whole.
readout.type: growth inhibition (%)
Answer with a number only, understood to be in %.

Completed entries (count: 3):
[[record]]
compound = "O=C(O)CC12C3C4C5C3C1C5C42 (stereo unspecified)"
quantitative_result = 17.1

[[record]]
compound = "O=CCC1CCCCC1"
quantitative_result = -2.2

[[record]]
compound = "Nc1ccc(Br)c(N)c1"
quantitative_result = -3.65


Value of measured growth inhibition for the entry CCC[n+]1ccccc1C : 19.4

Value of measured growth inhibition for the entry CN(C)c1ccc(/C=c2/sc3nc(=O)c(-c4ccccc4NC(=O)C(F)(F)F)nn3c2=O)cc1 : 2.65
